assay comment: in vitro
condition parameters: human, hela cells, % viability
viability at 28.5 h, 10 µM reference

| compound | viability at 28.5 h, 10 µM |
| --- | --- |
| O=c1c2cn[nH]c2nc(SCc2ccc3c(c2)OCCO3)n1-c1ccccc1 | 91.8% |
| Cc1nc(S(=O)(=O)CCn2cccn2)n(C2CCCCC2)c1C | 102% |
| O=C(CSc1ccc(Cl)cc1)Nc1cccc(-c2nc3ncccc3o2)c1 | 105% |
| Cc1c(O)ccc2c(COC(=O)C3(c4ccccc4)CCCC3)cc(=O)oc12 | 98.8% |
| CC(C(=O)N1CCCCC1)n1sc2ccccc2c1=O (centres unmarked) | 98.4% |
| O=C(Nc1cccc2cc[nH]c12)c1cccc(F)c1Cl | 99.8% |
| CCNC(=O)C1CCN(Cc2nc(-c3cc(OC)ccc3F)oc2C)C1 (centres unmarked) | 98.4% |
| O=C(c1ccc(NS(=O)(=O)c2ccccc2)cc1)N1CCN(Cc2ccc3c(c2)OCO3)CC1 | 102% |
| COc1cccc(Nc2cc(-c3ccco3)ncn2)c1 | 101% |
| Cc1cc(Cl)c(S(=O)(=O)Nc2ccc(I)cc2)cc1OCC(N)=O | 105% |
| CCOc1cccc(-c2cn3ccnc3c(N(C)CCN(C)C)n2)c1 | 89.7% |
| COc1ccc(/C=N/NC(=O)CCc2c(C)n[nH]c2C)cc1O | 93.6% |
| CC(C)(O)C#Cc1ccc(C(=O)NC(Cc2c[nH]c3ccccc23)C(=O)O)cc1 (centres unmarked) | 96.5% |
| O=C(O)c1ccc(NS(=O)(=O)c2cc(Br)c(Cl)s2)cc1 | 95.8% |
| Cc1nn(-c2nc3ccccc3s2)c(O)c1C | 87.8% |
| Nc1cccc(-c2cc(N3CCCC3CO)n3nccc3n2)c1 (centres unmarked) | 88.6% |
| CCOC(=O)Cn1ccc2ccnc(-c3cccs3)c21 | 107% |
| C=C(C)Cn1c(SC(C)C)nnc1-c1ccccc1OC | 97.1% |
| Oc1cccc(/C=N/c2ccc(Cc3ccc(/N=C/c4cccc(O)c4)cc3)cc2)c1 | 103% |
| CN1CCCC1CCNC(=O)c1ccc(-c2ccoc2)nc1 (centres unmarked) | 99.8% |
| COc1nccc(N2CCCC(CO)(CC3CC3)C2)c1C#N (centres unmarked) | 89.3% |
| CCC(=O)Nc1ccc(C(=O)Nc2ccc(S(=O)(=O)N3CCCCC3)cc2)cc1 | 84% |
| O=C(Cn1cc(-c2ccc(CN3CCCCC3)cc2)nn1)NCc1ccc(Cl)cc1Cl | 83.2% |

* * *

assay comment: in vitro
condition parameters: human, hela cells, % viability
Each entry below lists one item and its recorded viability at 28.5 h, 10 µM value.
quantity: viability at 28.5 h, 10 µM (%)

| compound | quantity | observed result |
| --- | --- | --- |
| CCOC(=O)c1cnn(C2CCCN(Cc3cc[nH]n3)C2)c1 (stereo not shown) [CBK305125] | viability at 28.5 h, 10 µM | 87.4 |
| CCCc1nnc(NC(=O)CN2CCc3c(c(CO)nn3C)C2)s1 [CBK307172] | viability at 28.5 h, 10 µM | 98.4 |
| CC(C)(C)OC(=O)NCc1ccc(-c2cc(N3CCN(C(=O)c4ccco4)CC3)ncn2)cc1 [CBK091107] | viability at 28.5 h, 10 µM | 98.3 |
| OCC1CCCN1c1nccnc1-c1cccnc1 (stereo not shown) [CBK089049] | viability at 28.5 h, 10 µM | 101 |
| O=C(Oc1ccc(/C=N/c2ccc(-c3nc4ccccc4s3)c(O)c2)cc1)c1ccc(Cl)cc1 [CBK261234] | viability at 28.5 h, 10 µM | 100 |
| O=S(=O)(Nc1ncc(Br)c2cccnc12)c1ccc(-c2ccccc2)cc1 [CBK073885] | viability at 28.5 h, 10 µM | 98.8 |
| CCn1c(-c2nonc2NC(C)=O)nc2ccccc21 [CBK062645] | viability at 28.5 h, 10 µM | 80 |
